protocolNotes: Cmax in rat at 2 mg/kg, iv measured after 24 hrs by LC-MS/MS analysis
Format: ADME, organism-based
conditionSet: in vivo

[
  {
    "molSmiles": "COc1ccc(C(=O)/C=C/C(=O)N2CCN(CC3CCN(Cc4cccc(Nc5ncc6ccn(CCCNC(=O)C7CCC7)c6n5)c4)CC3)CC2)cc1",
    "Cmax": "1790 nM"
  }
]

----------
systemUnderTest: Protein cereblon/Serine/threonine-protein kinase TBK1 (Homo sapiens) (UniProt Q9UHD2+Q96SW2)
Sequence (Q96SW2 whole entry, looked up): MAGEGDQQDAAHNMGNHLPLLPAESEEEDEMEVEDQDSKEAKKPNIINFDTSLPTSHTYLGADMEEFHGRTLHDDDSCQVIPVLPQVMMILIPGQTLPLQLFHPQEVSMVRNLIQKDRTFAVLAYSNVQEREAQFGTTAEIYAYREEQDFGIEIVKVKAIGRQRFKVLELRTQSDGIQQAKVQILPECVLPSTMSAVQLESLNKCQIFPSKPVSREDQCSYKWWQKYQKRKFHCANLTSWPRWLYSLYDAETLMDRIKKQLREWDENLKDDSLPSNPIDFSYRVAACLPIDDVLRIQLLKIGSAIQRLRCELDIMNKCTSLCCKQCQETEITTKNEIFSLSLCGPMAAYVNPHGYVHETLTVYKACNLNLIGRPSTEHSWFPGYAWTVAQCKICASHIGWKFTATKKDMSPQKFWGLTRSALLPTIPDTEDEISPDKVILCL
Sequence (Q9UHD2 whole entry, looked up): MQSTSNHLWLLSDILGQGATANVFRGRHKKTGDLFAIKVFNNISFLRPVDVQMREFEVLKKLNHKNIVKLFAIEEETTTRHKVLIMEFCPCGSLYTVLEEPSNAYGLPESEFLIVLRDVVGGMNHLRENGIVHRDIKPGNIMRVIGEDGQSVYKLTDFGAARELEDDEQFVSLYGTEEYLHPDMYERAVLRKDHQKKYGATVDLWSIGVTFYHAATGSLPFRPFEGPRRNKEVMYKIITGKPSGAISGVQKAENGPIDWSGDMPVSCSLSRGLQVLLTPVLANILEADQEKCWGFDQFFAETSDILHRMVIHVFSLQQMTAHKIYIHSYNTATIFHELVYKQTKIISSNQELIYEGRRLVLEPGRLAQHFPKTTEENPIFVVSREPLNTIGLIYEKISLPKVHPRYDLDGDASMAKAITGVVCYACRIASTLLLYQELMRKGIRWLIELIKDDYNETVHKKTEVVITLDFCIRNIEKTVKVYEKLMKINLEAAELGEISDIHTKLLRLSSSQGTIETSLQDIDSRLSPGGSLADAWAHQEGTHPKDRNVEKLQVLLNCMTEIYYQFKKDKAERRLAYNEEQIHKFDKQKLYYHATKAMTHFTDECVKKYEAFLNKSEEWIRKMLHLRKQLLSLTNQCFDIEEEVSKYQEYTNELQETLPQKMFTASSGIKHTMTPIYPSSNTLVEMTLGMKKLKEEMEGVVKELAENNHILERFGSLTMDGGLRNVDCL
protocolNotes: PROTAC activity at CRBN/TBK1 in human A549 cells assessed as induction of TBK1 degradation at 1 to 10 uM incubated for 16 hrs by Western blot analysis
Assay type: cell-based
conditionSet: dose 1-10 µM
The source made the active and inactive calls. The rule behind the calls is not given here.

[
  {
    "molSmiles": "Cc1ncsc1-c1ccc(CNC(=O)[C@@H]2C[C@@H](O)CN2C(=O)[C@H](NC(=O)CCCCCCCCC(=O)N2CCN(Cc3cccc(Nc4ncc5ccn(CCCNC(=O)C6CCC6)c5n4)c3)CC2)C(C)(C)C)cc1",
    "Activity": "inactive"
  },
  {
    "molSmiles": "Cc1ncsc1-c1ccc(CNC(=O)[C@@H]2C[C@@H](O)CN2C(=O)[C@H](NC(=O)CCCCC(=O)N2CCN(Cc3cccc(Nc4ncc5ccn(CCCNC(=O)C6CCC6)c5n4)c3)CC2)C(C)(C)C)cc1",
    "Activity": "inactive"
  }
]

----------
protocolNotes: AUC (0 to infinity) in rat at 10 mg/kg, po measured after 24 hrs by LC-MS/MS analysis
Format: ADME, organism-based
conditionSet: in vivo
measureName: AUC(0-inf) (µM·h)

[
  {
    "molSmiles": "COc1ccc(C(=O)/C=C/C(=O)N2CCN(CC3CCN(Cc4cccc(Nc5ncc6ccn(CCCNC(=O)C7CCC7)c6n5)c4)CC3)CC2)cc1",
    "assayResult": 0.14
  }
]

----------
systemUnderTest: E3 ubiquitin-protein ligase RNF126/Serine/threonine-protein kinase TBK1 (Homo sapiens, UniProt Q9UHD2+Q9BV68)
Sequence (Q9BV68 2-311 partner limits assumed, one chain of several): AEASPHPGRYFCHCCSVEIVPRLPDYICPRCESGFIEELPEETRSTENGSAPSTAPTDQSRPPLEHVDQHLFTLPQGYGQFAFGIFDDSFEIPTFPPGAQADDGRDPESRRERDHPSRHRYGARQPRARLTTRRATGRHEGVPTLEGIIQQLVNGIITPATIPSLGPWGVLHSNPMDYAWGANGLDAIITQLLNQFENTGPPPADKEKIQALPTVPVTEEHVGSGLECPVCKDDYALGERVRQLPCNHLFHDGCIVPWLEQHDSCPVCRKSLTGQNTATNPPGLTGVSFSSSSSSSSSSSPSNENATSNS
protocolNotes: Molecular glue activity at RNF126/TBK1 in HEK293T cells assessed as induction of TBK1 degradation at 1 uM incubated for 16 hrs by Western blot analysis
Format: cell-based
The source made the active and inactive calls. The rule behind the calls is not given here.
Classes used: yes = active, no = inactive

[
  {
    "molSmiles": "COc1ccc(C(=O)CCC(=O)N2CCN(CC3CCN(Cc4cccc(Nc5ncc6ccn(CCCNC(=O)C7CCC7)c6n5)c4)CC3)CC2)cc1",
    "discreteLabel": "no"
  },
  {
    "molSmiles": "COc1ccc(C(=O)/C=C/C(=O)N2CCN(CC3CCN(Cc4cccc(Nc5ncc6ccn(CCCNC(=O)C7CCC7)c6n5)c4)CC3)CC2)cc1",
    "discreteLabel": "yes"
  },
  {
    "molSmiles": "COc1ccc(C(=O)/C=C/C(=O)N2CCN(C)CC2)cc1",
    "discreteLabel": "no"
  },
  {
    "molSmiles": "COc1ccc(C(=O)/C=C(\\C#N)C(=O)N2CCN(Cc3cccc(Nc4ncc5ccn(CCCNC(=O)C6CCC6)c5n4)c3)CC2)cc1",
    "discreteLabel": "no"
  },
  {
    "molSmiles": "COc1ccc(C(=O)/C=C/C(=O)N2CCN(Cc3ccc(Nc4ncc5ccn(CCCNC(=O)C6CCC6)c5n4)cc3)CC2)cc1",
    "discreteLabel": "yes"
  },
  {
    "molSmiles": "COc1ccc(C(=O)/C(C#N)=C/C(=O)N2CCN(Cc3cccc(Nc4ncc5ccn(CCCNC(=O)C6CCC6)c5n4)c3)CC2)cc1",
    "discreteLabel": "no"
  },
  {
    "molSmiles": "COc1ccc(C(=O)/C=C/C(=O)N2CCN(Cc3cccc(Nc4ncc5ccn(CCCNC(=O)C6CCC6)c5n4)c3)CC2)cc1",
    "discreteLabel": "yes"
  }
]

----------
protocolNotes: Clearance in rat at 2 mg/kg, iv measured after 24 hrs by LC-MS/MS analysis
Assay type: ADME, organism-based
conditionSet: in vivo
measureName: clearance (mL/min/kg)

[
  {
    "molSmiles": "COc1ccc(C(=O)/C=C/C(=O)N2CCN(CC3CCN(Cc4cccc(Nc5ncc6ccn(CCCNC(=O)C7CCC7)c6n5)c4)CC3)CC2)cc1",
    "assayResult": 44.9
  }
]

----------
systemUnderTest: Protein cereblon/Serine/threonine-protein kinase TBK1 (Homo sapiens) (UniProt Q9UHD2+Q96SW2)
protocolNotes: PROTAC activity at CRBN/TBK1 in human A549 cells assessed as induction of TBK1 degradation at 1 to 10 uM incubated for 16 hrs by Western blot analysis
Type: cell-based
conditionSet: dose 1-10 µM
Calls of active or inactive are those of the source. The calls are words filed in the database; no cut-off is given here.

[
  {
    "molecule": "Cc1ncsc1-c1ccc(CNC(=O)[C@H]2C[C@H](O)CN2C(=O)[C@@H](NC(=O)COCC(=O)N2CCN(Cc3cccc(Nc4ncc5ccn(CCCNC(=O)C6CCC6)c5n4)c3)CC2)C(C)(C)C)cc1",
    "Activity": "inactive"
  },
  {
    "molecule": "O=C1CCC(N2C(=O)c3cccc(NCCCCCC(=O)N4CCN(Cc5cccc(Nc6ncc7ccn(CCCNC(=O)C8CCC8)c7n6)c5)CC4)c3C2=O)C(=O)N1 (stereo not drawn)",
    "Activity": "inactive"
  },
  {
    "molecule": "Cc1ncsc1-c1ccc(CNC(=O)[C@@H]2C[C@@H](O)CN2C(=O)[C@H](NC(=O)CCCCCCC(=O)N2CCN(Cc3cccc(Nc4ncc5ccn(CCCNC(=O)C6CCC6)c5n4)c3)CC2)C(C)(C)C)cc1",
    "Activity": "inactive"
  }
]

----------
protocolNotes: Half-life in rat at 10 mg/kg, po measured after 24 hrs by LC-MS/MS analysis
Type: ADME, organism-based
conditionSet: in vivo

[
  {
    "molSmiles": "COc1ccc(C(=O)/C=C/C(=O)N2CCN(CC3CCN(Cc4cccc(Nc5ncc6ccn(CCCNC(=O)C7CCC7)c6n5)c4)CC3)CC2)cc1",
    "half-life": "73.2 min"
  }
]

----------
protocolNotes: Volume of distribution at steady state in rat at 2 mg/kg, iv measured after 24 hrs by LC-MS/MS analysis
Format: ADME, organism-based
conditionSet: in vivo, read-out: Vdss
measureName: Vd

[
  {
    "molSmiles": "COc1ccc(C(=O)/C=C/C(=O)N2CCN(CC3CCN(Cc4cccc(Nc5ncc6ccn(CCCNC(=O)C7CCC7)c6n5)c4)CC3)CC2)cc1",
    "assayResult": "17.3 L/kg"
  }
]

----------
systemUnderTest: E3 ubiquitin-protein ligase RNF126/Serine/threonine-protein kinase TBK1 (Homo sapiens, UniProt Q9UHD2+Q9BV68)
protocolNotes: Molecular glue activity at RNF126/TBK1 in human A549 cells assessed as induction of TBK1 degradation at 1 uM incubated for 16 hrs by Western blot analysis
Type: cell-based
Calls of active or inactive are those of the source. No cut-off for these calls is given here.
measureName: Activity

[
  {
    "molSmiles": "COc1ccc(C(=O)/C(C#N)=C/C(=O)N2CCN(Cc3cccc(Nc4ncc5ccn(CCCNC(=O)C6CCC6)c5n4)c3)CC2)cc1",
    "measureName": "Activity",
    "assayResult": "inactive"
  },
  {
    "molSmiles": "COc1ccc(C(=O)/C=C/C(=O)N2CCN(C)CC2)cc1",
    "measureName": "Activity",
    "assayResult": "inactive"
  },
  {
    "molSmiles": "COc1ccc(C(=O)/C=C(\\C#N)C(=O)N2CCN(Cc3cccc(Nc4ncc5ccn(CCCNC(=O)C6CCC6)c5n4)c3)CC2)cc1",
    "measureName": "Activity",
    "assayResult": "inactive"
  },
  {
    "molSmiles": "COc1ccc(C(=O)/C=C/C(=O)N2CCN(Cc3cccc(Nc4ncc5ccn(CCCNC(=O)C6CCC6)c5n4)c3)CC2)cc1",
    "measureName": "Activity",
    "assayResult": "Active"
  },
  {
    "molSmiles": "COc1ccc(C(=O)/C=C/C(=O)N2CCN(Cc3ccc(Nc4ncc5ccn(CCCNC(=O)C6CCC6)c5n4)cc3)CC2)cc1",
    "measureName": "Activity",
    "assayResult": "Active"
  },
  {
    "molSmiles": "COc1ccc(C(=O)/C=C/C(=O)N2CCN(CC3CCN(Cc4cccc(Nc5ncc6ccn(CCCNC(=O)C7CCC7)c6n5)c4)CC3)CC2)cc1",
    "measureName": "Activity",
    "assayResult": "Active"
  },
  {
    "molSmiles": "COc1ccc(C(=O)CCC(=O)N2CCN(CC3CCN(Cc4cccc(Nc5ncc6ccn(CCCNC(=O)C7CCC7)c6n5)c4)CC3)CC2)cc1",
    "measureName": "Activity",
    "assayResult": "inactive"
  }
]

----------
protocolNotes: Tmax in rat at 10 mg/kg, po measured after 24 hrs by LC-MS/MS analysis
Format: ADME, organism-based
conditionSet: in vivo

[
  {
    "molSmiles": "COc1ccc(C(=O)/C=C/C(=O)N2CCN(CC3CCN(Cc4cccc(Nc5ncc6ccn(CCCNC(=O)C7CCC7)c6n5)c4)CC3)CC2)cc1",
    "Tmax": "21.6 min"
  }
]
